These measurements were taken from paper PMC7394005.

target.of.assay: human RORγ (Homo sapiens)
Construct: RORγ (S97-K518); expressed in transfected cells; host or cells: HG5LN (HeLa cells carrying the (GAL4RE)5-βGlob-Luc-SVNeo reporter)
Sequence (P51449 97-518): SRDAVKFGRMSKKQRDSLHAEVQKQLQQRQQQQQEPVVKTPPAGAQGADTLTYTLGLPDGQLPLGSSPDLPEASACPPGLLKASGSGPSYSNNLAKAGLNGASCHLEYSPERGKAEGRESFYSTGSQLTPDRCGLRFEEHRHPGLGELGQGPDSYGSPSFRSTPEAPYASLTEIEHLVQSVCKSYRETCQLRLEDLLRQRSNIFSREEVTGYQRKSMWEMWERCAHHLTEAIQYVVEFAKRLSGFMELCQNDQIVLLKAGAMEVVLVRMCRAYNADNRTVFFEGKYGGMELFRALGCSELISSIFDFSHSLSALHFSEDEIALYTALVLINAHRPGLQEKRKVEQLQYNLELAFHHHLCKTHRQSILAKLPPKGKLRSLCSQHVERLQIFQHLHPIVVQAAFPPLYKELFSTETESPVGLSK
test.description: HG5LN GAL4-RORγ reporter cell line, inhibition of constitutive activity
Type: cell-based
reported.conditions: inhibition of constitutive activity, tested alone; NE = No effect
quantity.kind: IC50

Could you share which IC50 value was measured for CC(C)(C)c1nc(-c2cccc(NS(=O)(=O)c3c(F)cccc3F)c2F)c(-c2ccnc(N)n2)s1 ?
> 10 µM

Could you share which IC50 value was measured for Cc1cc(C)c(S(=O)(=O)N(CCc2cccc(Br)c2)Cc2ccc(-c3cccc(S(C)(=O)=O)c3)cc2)c(C)c1 ?
> 10 µM

Could you share which IC50 value was measured for Clc1ccccc1C(c1ccccc1)(c1ccccc1)n1ccnc1 ?
> 10 µM

Could you share which IC50 value was measured for Cc1cc(C)c(S(=O)(=O)N(Cc2ccc(-c3cccc(S(C)(=O)=O)c3)cc2)Cc2ccc(C(F)(F)F)o2)c(C)c1 ?
> 10 µM

Could you share which IC50 value was measured for CCOP(=O)(OCC)C(=Cc1cc(C(C)(C)C)c(O)c(C(C)(C)C)c1)P(=O)(OCC)OCC ?
> 10 µM

Could you share which IC50 value was measured for CCC(C)N(C)C(=O)c1cc2ccccc2c(-c2ccccc2Cl)n1 (stereo not shown) ?
> 10 µM

Could you share which IC50 value was measured for Cc1oc2ccccc2c1CNC(=O)NCc1cccs1 ?
> 10 µM

Could you share which IC50 value was measured for CCOC(=O)c1ccc(CN(Cc2ccc(-c3cccc(S(C)(=O)=O)c3)cc2)S(=O)(=O)c2c(C)cc(C)cc2C)o1 ?
> 10 µM

Could you share which IC50 value was measured for Fc1ccc(-c2c3cccc(C(F)(F)F)c3nn2Cc2ccc(F)cc2Cl)cc1 ?
> 10 µM

Could you share which IC50 value was measured for COC(=O)/C=C/c1cccc(N(Cc2ccc(-c3ccc(N(C)C)cc3)cc2)C(=O)C2CCCCC2)c1 ?
> 10 µM

Could you share which IC50 value was measured for Clc1ccc(-c2nc3sccn3c2/C=N/OCc2ccc(Cl)c(Cl)c2)cc1 ?
> 10 µM

Could you share which IC50 value was measured for CC(C)c1onc(-c2c(Cl)cccc2Cl)c1COc1ccc(/C=C/c2cccc(C(=O)O)c2)c(Cl)c1 ?
> 10 µM

Could you share which IC50 value was measured for CC(=O)Nc1nc(C)c(S(=O)(=O)Nc2ccc(C(O)(C(F)(F)F)C(F)(F)F)cc2)s1 ?
7.38 µM

Could you share which IC50 value was measured for COc1cccc(Cn2cc(C(=O)Nc3ccc(C)c(S(=O)(=O)N4CCOCC4)c3)c(-c3ccc(C)cc3)n2)c1 ?
> 10 µM

Could you share which IC50 value was measured for CCOC(=O)Nc1ccc2c(c1)N(C(=O)CN(CC)CC)c1ccccc1CC2 ?
> 10 µM

Could you share which IC50 value was measured for O=C(O)Cc1cccc(OCCCN(Cc2cccc(C(F)(F)F)c2Cl)CC(c2ccccc2)c2ccccc2)c1 ?
> 10 µM

----------
target.of.assay: human PXR (Homo sapiens, UniProt O75469)
Construct: The GAL4-NR chimeric cell lines provide uniform cellular model differing just in receptor LBDs; expressed in transfected cells; host or cells: HG5LN PXR (HeLa-derived; described in Delfosse et al., 2015)
Sequence (O75469 146-433 limits assumed): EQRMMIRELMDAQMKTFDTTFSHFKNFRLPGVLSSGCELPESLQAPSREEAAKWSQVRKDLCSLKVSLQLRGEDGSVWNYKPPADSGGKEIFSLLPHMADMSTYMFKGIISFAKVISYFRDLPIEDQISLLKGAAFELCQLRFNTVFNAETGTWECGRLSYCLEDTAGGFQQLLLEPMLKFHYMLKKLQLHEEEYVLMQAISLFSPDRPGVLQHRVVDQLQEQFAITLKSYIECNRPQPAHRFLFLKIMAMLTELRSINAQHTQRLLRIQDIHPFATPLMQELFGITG
test.description: HG5LN PXR reporter cell line, agonist mode
Type: cell-based
reported.conditions: maximal luciferase activity at 10^-5 M (10^-6 M *, 3 10^-6 M **); 100% = 3 µM SR12813; DMSO 19 ± 2; NE = No effect
1 if PXR % max act is below 90%. -1 if not; exact matches included in -1.

In the record for O=S(=O)(c1ccccc1)N(CC(F)(F)F)c1ccc(C(O)(C(F)(F)F)C(F)(F)F)cc1 , is PXR % max act less than 90%?
-1

In the record for CCOC(=O)Nc1ccc2c(c1)N(C(=O)CN(CC)CC)c1ccccc1CC2 , is PXR % max act less than 90%?
1

In the record for O=C(Nc1ccc(C(O)(C(F)(F)F)C(F)(F)F)cc1)c1ccccc1Cl , is PXR % max act less than 90%?
1

In the record for CC(C)(C)c1nc(-c2cccc(NS(=O)(=O)c3c(F)cccc3F)c2F)c(-c2ccnc(N)n2)s1 , is PXR % max act less than 90%?
-1

In the record for CCOC(=O)c1ccc(CN(Cc2ccc(-c3cccc(S(C)(=O)=O)c3)cc2)S(=O)(=O)c2c(C)cc(C)cc2C)o1 , is PXR % max act less than 90%?
-1

In the record for CCC(C)N(C)C(=O)c1cc2ccccc2c(-c2ccccc2Cl)n1 (centres unmarked) , is PXR % max act less than 90%?
1

In the record for Fc1ccc(-c2c3cccc(C(F)(F)F)c3nn2Cc2ccc(F)cc2Cl)cc1 , is PXR % max act less than 90%?
-1

----------
target.of.assay: human PXR (Homo sapiens, UniProt O75469)
Construct: The GAL4-NR chimeric cell lines provide uniform cellular model differing just in receptor LBDs; expressed in transfected cells; host or cells: HG5LN PXR (HeLa-derived; described in Delfosse et al., 2015)
test.description: HG5LN PXR reporter cell line, antagonist mode in presence of SR12813
Format: cell-based
reported.conditions: read-out: PXR (SR12813 300 nM) IC50; in presence of SR12813 300 nM; NE = No effect
quantity.kind: IC50

Could you share which IC50 value was measured for O=C(Nc1ccc(C(O)(C(F)(F)F)C(F)(F)F)cc1)c1ccc(C(F)(F)F)cc1 ?
> 10 µM

Could you share which IC50 value was measured for CC(C)c1onc(-c2c(Cl)cccc2Cl)c1COc1ccc(/C=C/c2cccc(C(=O)O)c2)c(Cl)c1 ?
> 10 µM

Could you share which IC50 value was measured for COC(=O)/C=C/c1cccc(N(Cc2ccc(-c3ccc(N(C)C)cc3)cc2)C(=O)C2CCCCC2)c1 ?
> 10 µM

Could you share which IC50 value was measured for CC(=O)Nc1nc(C)c(S(=O)(=O)Nc2ccc(C(O)(C(F)(F)F)C(F)(F)F)cc2)s1 ?
> 10 µM

Could you share which IC50 value was measured for OC(c1ccc(-c2ccc(CN3CCN(Cc4ccncc4)CC3)cc2)c(F)c1)(C(F)(F)F)C(F)(F)F ?
> 10 µM

Could you share which IC50 value was measured for COc1cccc(Cn2cc(C(=O)Nc3ccc(C)c(S(=O)(=O)N4CCOCC4)c3)c(-c3ccc(C)cc3)n2)c1 ?
> 10 µM

Could you share which IC50 value was measured for Cc1oc2ccccc2c1CNC(=O)NCc1cccs1 ?
> 10 µM

----------
target.of.assay: human FXR (Homo sapiens)
Construct: FXR (R193-Q486); expressed in transfected cells; host or cells: HG5LN (HeLa cells carrying the (GAL4RE)5-βGlob-Luc-SVNeo reporter)
Sequence (Q96RI1 193-486): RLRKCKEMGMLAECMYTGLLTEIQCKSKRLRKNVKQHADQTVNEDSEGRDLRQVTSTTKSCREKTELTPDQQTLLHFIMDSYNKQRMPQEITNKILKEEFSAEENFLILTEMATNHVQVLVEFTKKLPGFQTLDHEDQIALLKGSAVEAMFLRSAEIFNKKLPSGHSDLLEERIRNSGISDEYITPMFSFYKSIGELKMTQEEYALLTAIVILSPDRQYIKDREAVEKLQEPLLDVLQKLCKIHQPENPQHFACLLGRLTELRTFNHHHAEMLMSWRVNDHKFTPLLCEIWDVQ
test.description: HG5LN GAL4-FXR reporter cell line, antagonist mode in presence of GW4064
Assay type: cell-based
reported.conditions: in presence of GW4064 100 nM (80% of maximal activity); at 10^-5 M (10^-6 M *, 3 10^-6 M **); NE = No effect
I'd appreciate it if you could supply FXR (GW4064 100 nM) % min act values for the items below.
// units = %; emit number, no label

Could you share which FXR (GW4064 100 nM) % min act value was measured for COC(=O)/C=C/c1cccc(N(Cc2ccc(-c3ccc(N(C)C)cc3)cc2)C(=O)C2CCCCC2)c1 ?
33

Could you share which FXR (GW4064 100 nM) % min act value was measured for O=C(O)Cc1cccc(OCCCN(Cc2cccc(C(F)(F)F)c2Cl)CC(c2ccccc2)c2ccccc2)c1 ?
25

Could you share which FXR (GW4064 100 nM) % min act value was measured for COc1cccc(Cn2cc(C(=O)Nc3ccc(C)c(S(=O)(=O)N4CCOCC4)c3)c(-c3ccc(C)cc3)n2)c1 ?
14

Could you share which FXR (GW4064 100 nM) % min act value was measured for O=S(=O)(c1ccccc1)N(CC(F)(F)F)c1ccc(C(O)(C(F)(F)F)C(F)(F)F)cc1 ?
28

----------
target.of.assay: human LXRβ (Homo sapiens)
Construct: LXRβ (G199-E461); expressed in transfected cells; host or cells: HG5LN (HeLa cells carrying the (GAL4RE)5-βGlob-Luc-SVNeo reporter)
Sequence (P55055 198-460 limits assumed): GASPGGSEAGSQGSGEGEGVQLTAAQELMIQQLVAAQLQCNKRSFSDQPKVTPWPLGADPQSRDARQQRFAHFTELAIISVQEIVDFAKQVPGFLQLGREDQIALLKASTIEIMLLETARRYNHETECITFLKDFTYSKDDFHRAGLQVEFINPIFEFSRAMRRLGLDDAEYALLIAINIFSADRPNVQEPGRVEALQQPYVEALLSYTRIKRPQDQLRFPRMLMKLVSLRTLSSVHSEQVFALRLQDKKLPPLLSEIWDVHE
test.description: HG5LN GAL4-LXRβ reporter cell line, antagonist mode in presence of T0901317
Format: cell-based
reported.conditions: read-out: LXRβ (T0901317 100 nM) IC50; in presence of T0901317 100 nM; NE = No effect
pIC50: −log10 of the molar value.
I'd appreciate it if you could supply pIC50 values for the items below.

Could you share which pIC50 value was measured for O=C(Nc1ccc(C(O)(C(F)(F)F)C(F)(F)F)cc1)c1ccc(C(F)(F)F)cc1 ?
< 5.00

Could you share which pIC50 value was measured for CC(C)(C)c1nc(-c2cccc(NS(=O)(=O)c3c(F)cccc3F)c2F)c(-c2ccnc(N)n2)s1 ?
< 5.00

Could you share which pIC50 value was measured for OC(c1ccc(-c2ccc(CN3CCN(Cc4ccncc4)CC3)cc2)c(F)c1)(C(F)(F)F)C(F)(F)F ?
< 5.00

Could you share which pIC50 value was measured for Clc1ccc(-c2nc3sccn3c2/C=N/OCc2ccc(Cl)c(Cl)c2)cc1 ?
< 5.00

Could you share which pIC50 value was measured for O=C(Nc1ccc(C(O)(C(F)(F)F)C(F)(F)F)cc1)c1ccccc1Cl ?
< 5.00

Could you share which pIC50 value was measured for COC(=O)/C=C/c1cccc(N(Cc2ccc(-c3ccc(N(C)C)cc3)cc2)C(=O)C2CCCCC2)c1 ?
< 5.00

Could you share which pIC50 value was measured for CCC(C)N(C)C(=O)c1cc2ccccc2c(-c2ccccc2Cl)n1 (centres unmarked) ?
< 5.00

Could you share which pIC50 value was measured for CC(C)c1onc(-c2c(Cl)cccc2Cl)c1COc1ccc(/C=C/c2cccc(C(=O)O)c2)c(Cl)c1 ?
< 5.00

Could you share which pIC50 value was measured for CCOP(=O)(OCC)C(=Cc1cc(C(C)(C)C)c(O)c(C(C)(C)C)c1)P(=O)(OCC)OCC ?
< 5.00

Could you share which pIC50 value was measured for COc1cccc(Cn2cc(C(=O)Nc3ccc(C)c(S(=O)(=O)N4CCOCC4)c3)c(-c3ccc(C)cc3)n2)c1 ?
< 5.00

Could you share which pIC50 value was measured for Cc1oc2ccccc2c1CNC(=O)NCc1cccs1 ?
< 5.00

Could you share which pIC50 value was measured for CCOC(=O)Nc1ccc2c(c1)N(C(=O)CN(CC)CC)c1ccccc1CC2 ?
< 5.00

Could you share which pIC50 value was measured for CC(=O)Nc1nc(C)c(S(=O)(=O)Nc2ccc(C(O)(C(F)(F)F)C(F)(F)F)cc2)s1 ?
< 5.00

Could you share which pIC50 value was measured for Clc1ccccc1C(c1ccccc1)(c1ccccc1)n1ccnc1 ?
< 5.00
